# System: SARS-CoV-2 (WIV02 isolate) prefusion stabilized spike trimer protein (UniProt P0DTC2 14-1213)
# Measurement Description: ELISA
Test Readout: IC50 (nM)
Enter your answer as a number in nM; do not include the unit.

1-L10-A (antibody, V domains shown) VH: EVKLEESGGGLVQPGGSMKLSCVASGFTFNNYWMNWVRQSPEKGLEWVAQMRLKSDNYATHYAESVKGRFTISRDDSKSSVYLQMNNLRAEDTGIYYCIEGYWTYWGQGTLVTVSA VL: QIVLTQSPAIMSASLGERVTMTCTASSSVSSSYLHWYQQKPGSSPKLWIYSTSNLASGVPARFSGNGSGTSYSLTISSMEAEDAATYYCLQYHRSPPYTFGGGTKLEIK | 8.65

# input for lookup
Sample 6-O12-A (antibody, V domains shown) VH: QVQLQQPGTELVKPGASVKLSCKASGYTFTSYWMHWVKQRPGQGLEWIGNINPSNGGTNYNEKFRSKATLTVDKSSSTAYMQLSSLTSEDSAVYYCARLGWFLPLGSWGQGTTLTVSS VL: QIVLTQSPAIMSASLGEVITLTCSASSSVSYMHWYQQKSGTSPKLLIYSTSNLASGVPSRFSGSGSGTFYSLTISSVEAEDAADYYCHQWSGYMYTFGGGTKLEIK ; IC50 observed: 7.62

Sourced from patent US20220372114A1
